These data points were gathered from a melting point compilation (Tetko et al.; mined from patent text by program, amines drawn as free bases though some values may be those of a salt).

# melting point per record follows

{"Molecule": "CCCCCCCCCCCC(=O)c1ccc(-c2ccc(O)c(F)c2)cc1", "melting point": "123 to 124 °C"}
{"Molecule": "Fc1ccc([C@@H]2CCN(Cc3ccccc3)C[C@H]2COc2ccc3c(c2)OCO3)cc1", "melting point": "98 to 100 °C"}
{"Molecule": "CCOC(=O)C1=Cc2cc(C(F)(F)F)ccc2NC1C(F)(F)F (configuration not stated)", "melting point": "138 to 139 °C"}
{"Molecule": "CCCCCCC(C(=O)O)n1cc(CC)c2cc(-c3ccccc3-c3nn[nH]n3)ccc21 (configuration not stated)", "melting point": "110 to 113 °C"}
{"Molecule": "CC(=NO)c1nc(-c2cccnc2)[nH]c1C", "melting point": "215 to 216 °C"}
{"Molecule": "CCC(CC)C(NC(=O)c1ccc(Cl)cc1)NC(=NC#N)Nc1cccnc1 (configuration not stated)", "melting point": "185 to 187 °C"}
{"Molecule": "COC(=O)c1cc(Cl)cc(N)c1O", "melting point": "65 to 67 °C"}
{"Molecule": "N#CCCOc1cccc(O)c1C=O", "melting point": "84 to 86 °C"}
{"Molecule": "COC(=O)c1ccc(C(=O)C=CN(C)C)cc1Cl", "melting point": "92 to 96 °C"}
{"Molecule": "ClCc1ccc(-c2ccc(CCl)cc2)cc1", "melting point": "137 to 138 °C"}
{"Molecule": "O=C1OC(O)c2c(F)cccc21 (configuration not stated)", "melting point": "97 to 100 °C"}
{"Molecule": "CCOC(=O)NC(=S)OCc1ccccc1", "melting point": "96 °C"}
{"Molecule": "COc1ccc2c(c1)NC(=O)C2=Cc1[nH]c2c(c1CCC(=O)O)CCCC2", "melting point": "263 to 266 °C"}
{"Molecule": "COc1cc(C2(C)COc3c(OC)cc(C=O)cc32)ccc1O (configuration not stated)", "melting point": "162 to 165 °C"}
{"Molecule": "O=[N+]([O-])c1ccc(C#CBr)cc1", "melting point": "170 °C"}
{"Molecule": "Nc1ccc2[nH]c(-c3ccccc3)cc2c1", "melting point": "220 °C"}
{"Molecule": "CCCCCCCCCCCCc1nnn(C(C(N)=O)(c2ccccc2)c2ccc(F)cc2F)n1 (configuration not stated)", "melting point": "62 to 64 °C"}
{"Molecule": "CN1C(=O)CC(c2ccc(-c3ccc(F)cc3)cc2)C1C(O)c1ccc(-c2ccccc2)s1 (configuration not stated)", "melting point": "191 to 193 °C"}
{"Molecule": "COc1ccccc1N1CCN(CCCNc2ccc(F)cc2)CC1", "melting point": "79 to 80 °C"}
{"Molecule": "CONC(=O)c1cc(C(=O)OC)c(O)c2ncc(Cc3ccc(F)cc3)cc12", "melting point": "200 to 201 °C"}
{"Molecule": "COc1ccc(O)c(CNc2ccc(NC(=O)CC(C)(C)C)cc2)c1", "melting point": "126 to 129 °C"}
{"Molecule": "O=C(Nc1cccc(-c2ccnc3c(C(=O)c4cccs4)cnn23)c1)c1cccnc1", "melting point": "191 to 194 °C"}

* * *

{"Compound": "CN(CCc1c[nH]c2ccc(CN)cc12)Cc1ccccc1", "melting point": "84 to 85 °C"}
{"Compound": "COc1c(Cl)nc(-c2ccccc2)nc1Cl", "melting point": "78 to 80 °C"}
{"Compound": "CS(=O)(=O)c1ccc(-n2nc(C(F)(F)F)cc2-c2ccc(-c3cscn3)cc2)cc1CO", "melting point": "203 to 205 °C"}
{"Compound": "COc1ccc(-c2cc(NC(=O)C3(C)Cc4ccccc4C3)n[nH]2)cc1", "melting point": "171 to 172 °C"}
{"Compound": "COc1cc(C(=O)O)ccc1-c1ccc(-c2ccccc2)c(-c2ccc3c(c2)C(C)(C)CCC3(C)C)c1", "melting point": "144 to 146 °C"}
{"Compound": "COC(=O)OCC(CO)CCn1cnc2cnc(N)nc21 (stereo unspecified)", "melting point": "129 to 132 °C"}
{"Compound": "Cc1cc(=O)n(-c2cccc(Cl)c2)c(=O)[nH]1", "melting point": "250 to 252 °C"}
{"Compound": "CC(C)Cc1ccc2ccc(=O)[nH]c2n1", "melting point": "135 to 137 °C"}
{"Compound": "COc1ccc(C(=O)c2[nH]c3ccc(Cl)cc3c2CC(=O)O)cc1", "melting point": "232 to 235 °C"}
{"Compound": "CCC(CC)(CO)CCS(N)(=O)=O", "melting point": "79 to 80 °C"}
{"Compound": "COC(=O)[C@H](CSC)Nc1ncccc1[N+](=O)[O-]", "melting point": "95 to 97 °C"}
